# target: C. albicans ALS (Candida albicans, UniProt A0A1D8PJF9)
# Sequence (A0A1D8PJF9 entry or part of it): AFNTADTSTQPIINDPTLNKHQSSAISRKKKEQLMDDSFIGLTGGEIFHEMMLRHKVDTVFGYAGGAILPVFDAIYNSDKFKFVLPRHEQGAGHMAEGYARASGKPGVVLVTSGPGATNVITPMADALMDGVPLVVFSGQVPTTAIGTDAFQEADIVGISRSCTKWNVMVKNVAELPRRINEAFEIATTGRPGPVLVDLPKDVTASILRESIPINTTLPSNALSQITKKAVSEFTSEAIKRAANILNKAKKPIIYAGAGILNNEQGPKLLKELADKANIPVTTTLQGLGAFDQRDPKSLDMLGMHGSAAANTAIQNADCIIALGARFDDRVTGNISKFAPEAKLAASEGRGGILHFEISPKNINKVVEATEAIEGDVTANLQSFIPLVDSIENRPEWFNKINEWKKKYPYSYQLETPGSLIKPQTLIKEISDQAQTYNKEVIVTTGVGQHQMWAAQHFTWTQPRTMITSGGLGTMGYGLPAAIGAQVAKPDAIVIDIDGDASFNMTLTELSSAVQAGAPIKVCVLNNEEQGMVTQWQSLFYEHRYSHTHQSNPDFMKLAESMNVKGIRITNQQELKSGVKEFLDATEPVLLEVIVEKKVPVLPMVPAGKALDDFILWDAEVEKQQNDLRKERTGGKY
# test: ALS biochemical assay (CaALS)
# test-settings: recombinant CaALS; read-out: ALS IC50 C. albicans
pIC50: −log10 of the molar value.
reported-property: pIC50

>  <smiles-entry>
CCOC(=O)c1ccccc1S(=O)(=O)NC(=O)Nc1nc(Cl)cc(OC)n1

>  <value>
7.57

$$$$

----------
# target: C. albicans ALS (Candida albicans)
# test: ALS biochemical assay (CaALS)

>  <compound>
COC(=O)c1ccccc1CS(=O)(=O)NC(=O)Nc1nc(OC)cc(OC)n1

>  <unit-abbreviation>
nM

>  <IC50>
30

$$$$
>  <compound>
COc1cnc(OC)n2nc(NS(=O)(=O)c3c(OCC(F)F)cccc3C(F)(F)F)nc12

>  <unit-abbreviation>
nM

>  <IC50>
3.4

$$$$
>  <compound>
CCCC1C(C)=CC2CC=CC3(C)C2C1C(=O)C31C(=O)NC(CCCO)C1=O (stereo not drawn)

>  <unit-abbreviation>
nM

>  <IC50>
60

$$$$

----------
# test: Plasma stability, mouse
# Assay type: in vitro ADME
# test-settings: read-out: Plasma t1/2 Mouse

>  <compound>
CCCC1C(C)=CC2CC=CC3(C)C2C1C(=O)C31C(=O)NC(CCCO)C1=O (stereo not shown)

>  <unit-abbreviation>
h

>  <half-life>
1.47

$$$$

----------
# target: S. cerevisiae ALS P192S (Saccharomyces cerevisiae, UniProt P07342, P192S)
# Construct: His6 (followed by a TEV protease site, pET28a) (N)
# Sequence (P07342 58-687 P192S): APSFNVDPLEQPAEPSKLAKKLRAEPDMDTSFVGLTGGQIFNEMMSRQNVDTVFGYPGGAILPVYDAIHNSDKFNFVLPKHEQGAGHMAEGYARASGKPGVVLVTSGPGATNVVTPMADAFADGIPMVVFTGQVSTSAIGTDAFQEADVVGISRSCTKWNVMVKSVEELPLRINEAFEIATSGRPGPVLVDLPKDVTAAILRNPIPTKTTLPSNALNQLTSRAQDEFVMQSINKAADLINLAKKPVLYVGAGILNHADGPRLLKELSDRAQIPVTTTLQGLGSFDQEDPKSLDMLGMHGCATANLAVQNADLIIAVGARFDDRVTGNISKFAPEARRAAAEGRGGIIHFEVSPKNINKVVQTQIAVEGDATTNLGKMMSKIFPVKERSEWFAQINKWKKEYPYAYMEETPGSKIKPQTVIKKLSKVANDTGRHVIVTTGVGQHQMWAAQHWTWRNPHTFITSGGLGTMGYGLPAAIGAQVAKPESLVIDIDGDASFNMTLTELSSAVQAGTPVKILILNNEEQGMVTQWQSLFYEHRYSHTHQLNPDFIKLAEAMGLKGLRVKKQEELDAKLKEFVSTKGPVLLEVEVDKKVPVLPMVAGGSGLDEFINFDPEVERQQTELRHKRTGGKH
# test: biochemical
// IC50 lookup, one value per entry

>  <compound>
COc1cnc(OC)n2nc(NS(=O)(=O)c3c(OCC(F)F)cccc3C(F)(F)F)nc12 [compound 3, penoxsulam]

>  <IC50>
150 nM

$$$$
>  <compound>
CCCC1C(C)=CC2CC=CC3(C)C2C1C(=O)C31C(=O)NC(CCCO)C1=O (centres unmarked) [compound 1]

>  <IC50>
66 nM

$$$$

----------
# target: A. fumigatus ALS (Aspergillus fumigatus, UniProt Q4WXQ3)
pIC50: −log10 of the molar value.

>  <molecule>
COC(=O)c1ccccc1CS(=O)(=O)NC(=O)Nc1nc(OC)cc(OC)n1

>  <pIC50>
7.00

$$$$
>  <molecule>
CCOC(=O)c1ccccc1S(=O)(=O)NC(=O)Nc1nc(Cl)cc(OC)n1

>  <pIC50>
7.96

$$$$
>  <molecule>
COc1cnc(OC)n2nc(NS(=O)(=O)c3c(OCC(F)F)cccc3C(F)(F)F)nc12

>  <pIC50>
9.30

$$$$
>  <molecule>
CCCC1C(C)=CC2CC=CC3(C)C2C1C(=O)C31C(=O)NC(CCCO)C1=O (stereo not shown)

>  <pIC50>
7.31

$$$$

----------
# test: Liver microsome stability, mouse
# Assay type: in vitro ADME
# test-settings: mouse liver microsomes; read-out: Liver microsome t1/2 Mouse

>  <molecule>
CCCC1C(C)=CC2CC=CC3(C)C2C1C(=O)C31C(=O)NC(CCCO)C1=O (stereo not shown)

>  <half-life>
3 min

$$$$
